- Tested on: ragweed (common ragweed, Ambrosia elatior)
- assay-details: Test A greenhouse herbicide test, pre- and postemergence
- Format: in vivo
- test-settings: Preemergence, 125 g ai/ha; visual injury rating, 0 to 100 scale (0 no effect, 100 complete control), approx. 10 d

>  <compound>
CCOC(=O)Oc1c(C)nn(C)c(=O)c1-c1c([N+](=O)[O-])ccc2ccccc12 [Compound 166]

>  <Plant response rating, Ragweed>
70

$$$$
>  <compound>
Cc1nn(C)c(=O)c(-c2ccc(Cl)c3ccccc23)c1OC(=O)C(F)(F)F [Compound 159]

>  <Plant response rating, Ragweed>
80

$$$$
>  <compound>
Cc1cc(C)c2sc(C)c(-c3c(OC(=O)N4CCOCC4)c(C)nn(C)c3=O)c2c1 [Compound 174]

>  <Plant response rating, Ragweed>
0

$$$$
>  <compound>
CC(=O)Oc1c(Cl)nn(C)c(=O)c1-c1c(C)sc2ccc(C(F)(F)F)cc12 [Compound 152]

>  <Plant response rating, Ragweed>
80

$$$$
>  <compound>
Cc1nn(Cc2ccccc2)c(=O)c(-c2cccc3ccccc23)c1O [Compound 168]

>  <Plant response rating, Ragweed>
0

$$$$

* * *

- System: field violet (Viola arvensis)
- assay-details: Test D controlled growth environment herbicide test, pre- and postemergence
- Assay type: in vivo
- test-settings: Preemergence, 31 g ai/ha
Examples of compounds with documented Plant response rating (scale of 0 to 100), Field Violet follow.
measured-metric: Plant response rating (scale of 0 to 100), Field Violet

>  <molecule-smiles>
CCc1sc2c(C)cc(C)cc2c1-c1c(O)c(C)nn(C)c1=O

>  <numeric-readout>
95

$$$$
>  <molecule-smiles>
Cc1nn(C)c(=O)c(-c2c(C)sc3ccc(Br)cc23)c1O

>  <numeric-readout>
20

$$$$
>  <molecule-smiles>
Cc1ccc2sc(C)c(-c3c(OC(=O)OC(C)C)c(C)nn(C)c3=O)c2c1

>  <numeric-readout>
60

$$$$
>  <molecule-smiles>
Cn1nc(Br)c(O)c(-c2cccc3ccccc23)c1=O

>  <numeric-readout>
0

$$$$

* * *

- Test system: radish, wild (wild radish, Raphanus raphanistrum)
- assay-details: Test D controlled growth environment herbicide test, pre- and postemergence
- Assay type: in vivo
- test-settings: postemergence, 62 g ai/ha; scale 0 to 100, 0 no effect, 100 complete control
Examples of molecules with documented Plant response rating, Radish, Wild follow.

>  <molecule-smiles>
Cc1cc2ccccc2c(-c2c(O)c(C)nn(C)c2=O)c1C

>  <Plant response rating, Radish, Wild>
85

$$$$
>  <molecule-smiles>
CCCC(=O)Oc1c(C)nn(C)c(=O)c1-c1c(C)sc2ccc(C)cc12

>  <Plant response rating, Radish, Wild>
15

$$$$
>  <molecule-smiles>
Cc1cc(C)c2ccccc2c1-c1c(O)c(C)nn(C)c1=O

>  <Plant response rating, Radish, Wild>
100

$$$$
>  <molecule-smiles>
Cc1nn(C)c(=O)c(-c2c(C)sc3c(C)cc(Cl)cc23)c1O

>  <Plant response rating, Radish, Wild>
100

$$$$
>  <molecule-smiles>
Cc1nn(C)c(=O)c(-c2ccc(F)c3ccccc23)c1O

>  <Plant response rating, Radish, Wild>
80

$$$$
>  <molecule-smiles>
Cc1ccc2sc(C)c(-c3c(OC(=O)OC(C)C)c(C)nn(C)c3=O)c2c1

>  <Plant response rating, Radish, Wild>
25

$$$$
>  <molecule-smiles>
Cc1ccc2ccccc2c1-c1c(O)c(Br)nn(C)c1=O

>  <Plant response rating, Radish, Wild>
75

$$$$
>  <molecule-smiles>
CC(=O)Oc1c(C)nn(C)c(=O)c1-c1c(C)sc2ccc(Cl)cc12

>  <Plant response rating, Radish, Wild>
75

$$$$
>  <molecule-smiles>
Cc1nn(C)c(=O)c(-c2cccc3ccc(Br)cc23)c1O

>  <Plant response rating, Radish, Wild>
70

$$$$

* * *

- Test system: galium (catchweed bedstraw, Galium aparine)
- assay-details: Test C greenhouse herbicide test, pre- and postemergence
- Type: in vivo
- test-settings: Postemergence, 125 g ai/ha; scale 0 to 100, 0 is no effect, 100 is complete control
- Description: […]
Examples of compounds with documented Plant response rating, Galium follow.
measured-metric: Plant response rating, Galium

>  <compound>
CC(=O)Oc1c(C)nn(C)c(=O)c1-c1c(C)cc(C)c2ccccc12 [Compound 99]

>  <measurement-target>
galium (catchweed bedstraw, Galium aparine)

>  <numeric-readout>
98

$$$$
>  <compound>
COC(=O)Oc1c(C)nn(C)c(=O)c1-c1c(C)sc2ccc(C)cc12 [Compound 80]

>  <measurement-target>
galium (catchweed bedstraw, Galium aparine)

>  <numeric-readout>
95

$$$$
>  <compound>
Cc1nn(C)c(=O)c(-c2c(C)sc3ccc(Br)cc23)c1O [Compound 22]

>  <measurement-target>
galium (catchweed bedstraw, Galium aparine)

>  <numeric-readout>
95

$$$$
>  <compound>
CC(=O)Oc1c(C)nn(C)c(=O)c1-c1c(C)sc2ccc(Cl)cc12 [Compound 108]

>  <measurement-target>
galium (catchweed bedstraw, Galium aparine)

>  <numeric-readout>
95

$$$$
>  <compound>
Cc1sc2ccccc2c1-c1c(O)c(Cl)nn(C)c1=O [Compound 89]

>  <measurement-target>
galium (catchweed bedstraw, Galium aparine)

>  <numeric-readout>
95

$$$$
>  <compound>
COC(=O)Oc1cnn(C)c(=O)c1-c1c(C)sc2ccccc12 [Compound 97]

>  <measurement-target>
galium (catchweed bedstraw, Galium aparine)

>  <numeric-readout>
85

$$$$

* * *

- System: johnsongrass (Sorghum halepense)
- assay-details: Test C greenhouse herbicide test, pre- and postemergence
- Format: in vivo
- test-settings: Preemergence, 31 g ai/ha; scale 0 to 100, 0 is no effect, 100 is complete control
Examples of molecules with documented Plant response rating, Johnsongrass follow.
measured-metric: Plant response rating, Johnsongrass

>  <molecule>
Cc1cc(C)c2sc(C)c(-c3c(O)c(C)nn(C)c3=O)c2c1 [Compound 2]

>  <measured-metric>
Plant response rating, Johnsongrass

>  <numeric-readout>
0

$$$$
>  <molecule>
CC(=O)Oc1c(Cl)nn(C)c(=O)c1-c1c(C)sc2ccc(Cl)cc12 [Compound 116]

>  <measured-metric>
Plant response rating, Johnsongrass

>  <numeric-readout>
0

$$$$
>  <molecule>
Cc1sc2ccccc2c1-c1c(O)c(Cl)nn(C)c1=O [Compound 89]

>  <measured-metric>
Plant response rating, Johnsongrass

>  <numeric-readout>
0

$$$$
>  <molecule>
CCc1oc2ccc(C)cc2c1-c1c(O)c(C)nn(C)c1=O [Compound 10]

>  <measured-metric>
Plant response rating, Johnsongrass

>  <numeric-readout>
0

$$$$
>  <molecule>
CCCC(=O)Oc1c(C)nn(C)c(=O)c1-c1c(C)sc2ccc(C)cc12 [Compound 105]

>  <measured-metric>
Plant response rating, Johnsongrass

>  <numeric-readout>
10

$$$$
>  <molecule>
Cc1ccc2ccccc2c1-c1c(O)c(I)nn(C)c1=O [Compound 29]

>  <measured-metric>
Plant response rating, Johnsongrass

>  <numeric-readout>
10

$$$$
>  <molecule>
Cc1ccc2sc(Br)c(-c3c(O)c(C)nn(C)c3=O)c2c1 [Compound 79]

>  <measured-metric>
Plant response rating, Johnsongrass

>  <numeric-readout>
10

$$$$
>  <molecule>
Cn1nc(Br)c(O)c(-c2cccc3ccccc23)c1=O [Compound 20]

>  <measured-metric>
Plant response rating, Johnsongrass

>  <numeric-readout>
0

$$$$
>  <molecule>
COC(=O)Oc1c(C)nn(C)c(=O)c1-c1ccc(Br)c2ccccc12 [Compound 145]

>  <measured-metric>
Plant response rating, Johnsongrass

>  <numeric-readout>
10

$$$$
>  <molecule>
CCC(=O)Oc1c(C)nn(C)c(=O)c1-c1ccc(Br)c2ccccc12 [Compound 134]

>  <measured-metric>
Plant response rating, Johnsongrass

>  <numeric-readout>
0

$$$$
>  <molecule>
CCC(=O)Oc1c(OC)nn(C)c(=O)c1-c1c(C)sc2ccc(Cl)cc12 [Compound 131]

>  <measured-metric>
Plant response rating, Johnsongrass

>  <numeric-readout>
0

$$$$
>  <molecule>
Cc1nn(C)c(=O)c(-c2c(C)sc3ccc(C(F)(F)F)cc23)c1O [Compound 121]

>  <measured-metric>
Plant response rating, Johnsongrass

>  <numeric-readout>
0

$$$$
>  <molecule>
COC(=O)Oc1cnn(C)c(=O)c1-c1c(C)sc2ccccc12 [Compound 97]

>  <measured-metric>
Plant response rating, Johnsongrass

>  <numeric-readout>
0

$$$$

* * *

- Tested on: galium (catchweed bedstraw, Galium aparine)
- assay-details: Test D controlled growth environment herbicide test, pre- and postemergence
- Format: in vivo
- test-settings: Preemergence, 125 g ai/ha; scale 0 to 100 (0 no effect, 100 complete control)
Examples of compounds with documented Plant response rating, Galium follow.

>  <compound>
Cc1nn(C)c(=O)c(-c2ccc(F)c3ccccc23)c1O [Compound 41]

>  <Plant response rating, Galium>
95

$$$$
>  <compound>
Cc1nn(C)c(=O)c(-c2c(C)sc3ccc(Br)cc23)c1O [Compound 22]

>  <Plant response rating, Galium>
75

$$$$
>  <compound>
CCc1sc2c(C)cc(C)cc2c1-c1c(O)c(C)nn(C)c1=O [Compound 57]

>  <Plant response rating, Galium>
100

$$$$
>  <compound>
Cc1ccc2ccccc2c1-c1c(OC(=O)OC(C)C)c(C)nn(C)c1=O [Compound 72]

>  <Plant response rating, Galium>
70

$$$$
>  <compound>
Cc1nn(C)c(=O)c(-c2cccc3ccccc23)c1O [Compound 11]

>  <Plant response rating, Galium>
100

$$$$
>  <compound>
Cc1nn(C)c(=O)c(-c2cccc3ccc(Br)cc23)c1O [Compound 126]

>  <Plant response rating, Galium>
85

$$$$
